Origin of values: patent EP0773292A1

System: HC e/n XVB cells
PROCEDURE TEXT: Electrophysiology: whole-cell patch-clamp, ligand-activated currents
Format: cell-based, murine
MEASUREMENT CONDITIONS: XV. B/ - EGF (differentiated); membrane potential clamped to -70mV

- COMPOUND STRUCTURE: "CC(=O)OCC[N+](C)(C)C"
  ligand-activated currents: "-"

----------
System: HNMMCV14.1.A
PROCEDURE TEXT: Ca2+-imaging (Fura-2), rise in intracellular calcium
Assay type: cell-based, murine
MEASUREMENT CONDITIONS: HNMMCV14.1.A; glutamate 10µM to 10 mM, AMPA, kainic acid, serotonine, dopamine, carbachol up to 1mM, NMDA up to 500µM
RECORDED METRIC: transient rise in intracellular calcium concentration

- COMPOUND: "N[C@@]1(C(=O)O)CC[C@@H](C(=O)O)C1 [t-ACPD, 1S3R-aminocyclopentane-1,3-dicarboxylate]"
  SYSTEM NAME: "HNMMCV14.1.A"
  REPORTED RESULT: "strong"
- COMPOUND: "N[C@H](C(=O)O)[C@H]1C[C@@H]1C(=O)O [L-CCG 1, L-carboxycyclopropylglycin]"
  SYSTEM NAME: "HNMMCV14.1.A"
  REPORTED RESULT: "strong"
